EC50 listing for selected compounds.
Target: human RXR (Homo sapiens)
Sequence (P19793 whole entry): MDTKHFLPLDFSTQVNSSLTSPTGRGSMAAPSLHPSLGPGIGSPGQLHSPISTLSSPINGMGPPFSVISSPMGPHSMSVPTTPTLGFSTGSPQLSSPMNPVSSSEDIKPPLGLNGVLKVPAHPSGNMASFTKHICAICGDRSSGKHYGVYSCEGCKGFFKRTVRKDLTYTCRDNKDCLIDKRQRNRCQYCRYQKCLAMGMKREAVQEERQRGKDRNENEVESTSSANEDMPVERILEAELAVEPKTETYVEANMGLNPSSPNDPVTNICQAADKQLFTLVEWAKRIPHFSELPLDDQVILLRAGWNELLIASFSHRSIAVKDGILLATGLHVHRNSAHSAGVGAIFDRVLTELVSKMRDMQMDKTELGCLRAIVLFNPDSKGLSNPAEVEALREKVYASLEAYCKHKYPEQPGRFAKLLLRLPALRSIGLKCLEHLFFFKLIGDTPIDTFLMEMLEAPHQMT
Sequence (P19793 whole entry): as above
Assay: Test A: RXR mammalian two-hybrid luciferase assay in transfected HCT-116 cells
Settings: RXR mammalian two-hybrid system, luciferase reporter, 24 hours treatment, dose-response 1x10^-9 to 0.3x10^-5 M
Protocol: HCT-116 cells were plated overnight at 80,000 cells/well in a 24 well plate and maintained as described above. […] The amount of rexinoid activity at each concentration was measured using the same luciferase assay described above, and EC50 values were derived from dose-response curves of ligand concentration versus normalized luciferase activity.
measuredProperty: EC50 (nM)

> print(dat)
                            molecularstring  reportedresult
1  Cc1cnc(/C=C/C(=O)O)cc1-c1cc2c(cc1C)C(C)(C)CCC2(C)C             3.7
2  Cc1cc2c(cc1-c1nc(/C=C/C(=O)O)ccc1C)C(C)(C)CCC2(C)C             305
3  Cc1cc2c(cc1-n1c(C(F)(F)F)nc3cc(C(=O)O)ccc31)C(C)(C)CCC2(C)C              20
4  Cc1cc2c(cc1-c1cncc(/C=C/C(=O)O)c1)C(C)(C)CCC2(C)C             710

---

melting point listing for selected compounds.
measuredProperty: melting point

> print(dat)
                                   compound     reportedresult
1  CCN(c1ccc2c(c1)C(C)(C)CCC2(C)C)c1cnc(C(=O)O)cn1 [Compound A58]  213.1 to 214.4 °C
2  CCN(c1ccc(C(=O)O)c(F)c1)c1ccc2c(c1)C(C)(C)CCC2(C)C [Compound A62]  252.4 to 256.8 °C
3  CCN(c1ccc(C(=O)O)cc1)c1cc2c(cc1C)C(C)(C)CCC2(C)C [Compound A61]  252.4 to 256.8 °C
4  CCN(c1cnc(C(=O)O)cn1)c1cc2c(cc1C)C(C)(C)CCC2(C)C [Compound A59]  203.6 to 205.1 °C
5  CCN(c1ccc(C(=O)O)cc1)c1ccc2c(c1)C(C)(C)CCC2(C)C [Compound A63]  247.8 to 250.6 °C
6  CCN(c1ncc(C(=O)O)cn1)c1cc2c(cc1C)C(C)(C)CCC2(C)C [Compound A57]  231.9 to 233.1 °C
7  CCN(c1ccc(C(=O)O)c(F)c1)c1cc2c(cc1C)C(C)(C)CCC2(C)C [Compound A60]  241.4 to 243.8 °C
